TARGET UNDER TEST: cAMP-dependent protein kinase catalytic subunit alpha (Homo sapiens, UniProt P17612)
EXPERIMENT: Inhibition of PKA catalytic subunit alpha using 100 uM ATP and 30 uM TAMRA-kemptide substrate by fluorometric TLC assay
Where a SMILES comes first, the peptide text is derived from it. [ ]: non-standard residue; d: D form. The star is where a group is joined. Adenosine(5'-uronoyl) = Nc1ncnc2c1ncn2[C@@H]1O[C@H](C(=O)*)[C@@H](O)[C@H]1O; Ahx = NCCCCCC(=O)O
MEASURED METRIC: log10(IC50) (log10 of the value in nM)

[
  {
    "MOLECULE": "NCCCC[C@@H](NC(=O)CCCCCNC(=O)[C@H]1O[C@@H](n2cnc3c(N)ncnc32)[C@H](O)[C@@H]1O)C(=O)NCCCCCC(=O)N[C@H](CCCN=C(N)N)C(=O)N[C@H](CCCN=C(N)N)C(N)=O",
    "log10(IC50)": 1.73
  },
  {
    "MOLECULE": "NC(=O)[C@@H](CCCN=C(N)N)NC(=O)CCCCCNC(=O)[C@H]1O[C@@H](n2cnc3c(N)ncnc32)[C@H](O)[C@@H]1O",
    "log10(IC50)": 3.32
  },
  {
    "MOLECULE": "N=C(N)NCCC[C@@H](NC(=O)[C@@H](CCCNC(=N)N)NC(=O)[C@@H](CCCNC(=N)N)NC(=O)[C@@H](CCCNC(=N)N)NC(=O)[C@@H](CCCNC(=N)N)NC(=O)[C@@H](CCCNC(=N)N)NC(=O)CCCCCNC(=O)[C@@H](CCCCN)NC(=O)CCCCCNC(=O)[C@H]1O[C@@H](n2cnc3c(N)ncnc32)[C@H](O)[C@@H]1O)C(N)=O ({Adenosine(5'-uronoyl)-Ahx}-[dK][Ahx][dR][dR][dR][dR][dR][dR]-NH2)",
    "log10(IC50)": 0.73
  },
  {
    "MOLECULE": "NCCCC[C@@H](NC(=O)CCCCCNC(=O)[C@H]1O[C@@H](n2cnc3c(N)ncnc32)[C@H](O)[C@@H]1O)C(=O)NCCCCCC(=O)N[C@H](CCCN=C(N)N)C(=O)N[C@H](CCCN=C(N)N)C(=O)N[C@H](CCCN=C(N)N)C(=O)N[C@H](CCCN=C(N)N)C(N)=O",
    "log10(IC50)": 1.13
  },
  {
    "MOLECULE": "NC(=O)[C@@H](CCCN=C(N)N)NC(=O)[C@@H](CCCN=C(N)N)NC(=O)CCCCCNC(=O)[C@H]1O[C@@H](n2cnc3c(N)ncnc32)[C@H](O)[C@@H]1O",
    "log10(IC50)": 3.41
  }
]

----------
TARGET UNDER TEST: cAMP-dependent protein kinase catalytic subunit alpha (Homo sapiens, UniProt P17612)
EXPERIMENT: Binding affinity to PKA catalytic subunit alpha by fluorescence polarization assay
pKd: −log10 of the molar value. Where a SMILES comes first, the peptide text is derived from it. [ ]: non-standard residue; d: D form. The star is where a group is joined. Adenosine(5'-uronoyl) = Nc1ncnc2c1ncn2[C@@H]1O[C@H](C(=O)*)[C@@H](O)[C@H]1O; Ahx = NCCCCCC(=O)O
Collected pKd values appear next to each entry.
MEASURED METRIC: pKd

[
  {
    "MOLECULE": "NCCCC[C@H](NC(=O)CCCCCNC(=O)[C@H]1O[C@@H](n2cnc3c(N)ncnc32)[C@H](O)[C@@H]1O)C(=O)NCCCCCC(=O)N[C@H](CCCN=C(N)N)C(=O)N[C@H](CCCN=C(N)N)C(N)=O",
    "BOUND SIGN": "=",
    "MEASURED": 6.23
  },
  {
    "MOLECULE": "NC(=O)CCCCCNC(=O)[C@H]1O[C@@H](n2cnc3c(N)ncnc32)[C@H](O)[C@@H]1O",
    "BOUND SIGN": "=",
    "MEASURED": 5.66
  },
  {
    "MOLECULE": "NCCCC[C@@H](NC(=O)CCCCCNC(=O)[C@H]1O[C@@H](n2cnc3c(N)ncnc32)[C@H](O)[C@@H]1O)C(=O)NCCCCCC(=O)N[C@H](CCCN=C(N)N)C(=O)N[C@H](CCCN=C(N)N)C(=O)N[C@H](CCCN=C(N)N)C(=O)N[C@H](CCCN=C(N)N)C(N)=O",
    "BOUND SIGN": "=",
    "MEASURED": 9.30
  },
  {
    "MOLECULE": "C[C@@H](NC(=O)CCCCCNC(=O)[C@@H]1C[C@@H](O)[C@H](n2cnc3c(N)ncnc32)C1)C(=O)NCCCCCC(=O)N[C@H](CCCNC(=N)N)C(=O)N[C@H](CCCNC(=N)N)C(N)=O",
    "BOUND SIGN": "=",
    "MEASURED": 8.74
  },
  {
    "MOLECULE": "NCCCCNC(=O)CCCCCNC(=O)[C@H]1O[C@@H](n2cnc3c(N)ncnc32)[C@H](O)[C@@H]1O",
    "BOUND SIGN": "=",
    "MEASURED": 5.79
  },
  {
    "MOLECULE": "NCCCC[C@@H](NC(=O)CCCCCNC(=O)[C@H]1O[C@@H](n2cnc3c(N)ncnc32)[C@H](O)[C@@H]1O)C(=O)NCCCCCC(=O)N[C@@H](CCCN=C(N)N)C(=O)N[C@@H](CCCN=C(N)N)C(N)=O",
    "BOUND SIGN": "=",
    "MEASURED": 8.06
  },
  {
    "MOLECULE": "NC(=O)[C@@H](CCCN=C(N)N)NC(=O)CCCCCNC(=O)[C@H]1O[C@@H](n2cnc3c(N)ncnc32)[C@H](O)[C@@H]1O",
    "BOUND SIGN": "=",
    "MEASURED": 6.60
  },
  {
    "MOLECULE": "Nc1ncnc2c1ncn2[C@@H]1O[C@H](C(=O)NCCCCCC(=O)NCc2ccccc2)[C@@H](O)[C@H]1O",
    "BOUND SIGN": "=",
    "MEASURED": 4.87
  },
  {
    "MOLECULE": "N=C(N)NCCC[C@@H](NC(=O)[C@@H](CCCNC(=N)N)NC(=O)CCCCCCCNC(=O)[C@@H](CCCCN)NC(=O)CCCCCNC(=O)[C@H]1O[C@@H](n2cnc3c(N)ncnc32)[C@H](O)[C@@H]1O)C(N)=O",
    "BOUND SIGN": "=",
    "MEASURED": 8.02
  },
  {
    "MOLECULE": "NCCNC(=O)CCCCCNC(=O)[C@H]1O[C@@H](n2cnc3c(N)ncnc32)[C@H](O)[C@@H]1O",
    "BOUND SIGN": "=",
    "MEASURED": 5.08
  },
  {
    "MOLECULE": "NC(=O)[C@@H](CCCN=C(N)N)NC(=O)[C@@H](CCCN=C(N)N)NC(=O)CCCCCNC(=O)CCCCCNC(=O)[C@H]1O[C@@H](n2cnc3c(N)ncnc32)[C@H](O)[C@@H]1O",
    "BOUND SIGN": "=",
    "MEASURED": 7.08
  },
  {
    "MOLECULE": "Nc1ncnc2c1ncn2[C@@H]1O[C@H](C(=O)NCCCCCC(=O)O)[C@@H](O)[C@H]1O",
    "BOUND SIGN": "=",
    "MEASURED": 4.25
  },
  {
    "MOLECULE": "NCCCC[C@@H](NC(=O)CCCCCNC(=O)[C@H]1O[C@@H](n2cnc3c(N)ncnc32)[C@H](O)[C@@H]1O)C(N)=O",
    "BOUND SIGN": "=",
    "MEASURED": 6.35
  },
  {
    "MOLECULE": "NCCCC[C@@H](NC(=O)CCCCCNC(=O)[C@H]1O[C@@H](n2cnc3c(N)ncnc32)[C@H](O)[C@@H]1O)C(=O)NCCCCCC(=O)N[C@H](CCCN=C(N)N)C(=O)N[C@H](CCCN=C(N)N)C(N)=O",
    "BOUND SIGN": "=",
    "MEASURED": 8.12
  },
  {
    "MOLECULE": "NC(=O)CCCNC(=O)OC[C@H]1O[C@@H](n2cnc3c(N)ncnc32)[C@H](O)[C@@H]1O",
    "BOUND SIGN": "=",
    "MEASURED": 4.01
  },
  {
    "MOLECULE": "N=C(N)NCCC[C@@H](NC(=O)[C@@H](CCCNC(=N)N)NC(=O)[C@@H](CCCNC(=N)N)NC(=O)[C@@H](CCCNC(=N)N)NC(=O)[C@@H](CCCNC(=N)N)NC(=O)[C@@H](CCCNC(=N)N)NC(=O)CCCCCNC(=O)[C@@H](CCCCN)NC(=O)CCCCCNC(=O)[C@H]1O[C@@H](n2cnc3c(N)ncnc32)[C@H](O)[C@@H]1O)C(N)=O ({Adenosine(5'-uronoyl)-Ahx}-[dK][Ahx][dR][dR][dR][dR][dR][dR]-NH2)",
    "BOUND SIGN": ">",
    "MEASURED": 9.30
  },
  {
    "MOLECULE": "NC(=O)[C@@H](Cc1ccc(C(=O)c2ccccc2)cc1)NC(=O)CCCCCNC(=O)[C@H]1O[C@@H](n2cnc3c(N)ncnc32)[C@H](O)[C@@H]1O",
    "BOUND SIGN": "=",
    "MEASURED": 5.71
  },
  {
    "MOLECULE": "NC(=O)[C@H](Cc1ccc(C(=O)c2ccccc2)cc1)NC(=O)CCCCCNC(=O)[C@H]1O[C@@H](n2cnc3c(N)ncnc32)[C@H](O)[C@@H]1O",
    "BOUND SIGN": "<",
    "MEASURED": 4.00
  },
  {
    "MOLECULE": "N=C(N)NCCC[C@@H](NC(=O)[C@@H](CCCNC(=N)N)NC(=O)CCCNC(=O)CCCCCNC(=O)[C@H]1O[C@@H](n2cnc3c(N)ncnc32)[C@H](O)[C@@H]1O)C(N)=O",
    "BOUND SIGN": "=",
    "MEASURED": 6.61
  },
  {
    "MOLECULE": "NCCCC[C@@H](NC(=O)CCCCCNC(=O)[C@H]1O[C@@H](n2cnc3c(N)ncnc32)[C@H](O)[C@@H]1O)C(=O)NCCCC(=O)N[C@H](CCCN=C(N)N)C(=O)N[C@H](CCCN=C(N)N)C(N)=O",
    "BOUND SIGN": "=",
    "MEASURED": 7.90
  },
  {
    "MOLECULE": "NC(=O)CCCCCNC(=O)OC[C@H]1O[C@@H](n2cnc3c(N)ncnc32)[C@H](O)[C@@H]1O",
    "BOUND SIGN": "=",
    "MEASURED": 4.28
  },
  {
    "MOLECULE": "Nc1ncnc2c1ncn2[C@@H]1O[C@H](C(=O)NCCCCCC(=O)NCCO)[C@@H](O)[C@H]1O",
    "BOUND SIGN": "=",
    "MEASURED": 4.73
  }
]

Value source: ChEMBL document CHEMBL1139385
